organism: Canis lupus familiaris; assay: Binding affinity to hound bone powder assessed as reduction in bound compound level at 50 uM after 16 hrs by NMR spectroscopic analysis relative to alendronate; design: scale not given: the % may be the effect or the level left
Please provide measured Activity for the entries that follow.
Answers are plain numbers, in %.

smiles string	Activity / %
COc1ccc2c(C(=O)c3ccc(OCCN4CCCCC4)cc3)c(-c3ccc(O)cc3)sc2c1	77.4

# batch: return Activity for each of the 5 molecules below
1. COc1ccc(Nc2nc(NCc3ccco3)nc(N/N=C(\C)c3ccc(NC(C)=O)cc3)n2)cc1
2. O=C(c1ccc(OCCN2CCCCC2)cc1)c1c(-c2ccccc2)sc2ccccc12
3. Oc1ccc(-c2cc3ccc(O)cc3s2)cc1
4. O=C(c1ccc(OCCN2CCCCC2)cc1)c1c(-c2ccc(O)cc2)sc2cc(O)ccc12
5. C[C@]12CC[C@@H]3c4ccc(O)cc4CC[C@H]3[C@@H]1CC[C@@H]2O

1. -0.5
2. 93.1
3. 48.6
4. 104
5. 77.4

Quick one: Activity of O=C(c1ccc(O)cc1)c1c(-c2ccc(O)cc2)sc2cc(O)ccc12 ?
35.6

* * *

target: Estrogen receptor beta (Homo sapiens, UniProt Q92731)
Sequence (Q92731 whole entry): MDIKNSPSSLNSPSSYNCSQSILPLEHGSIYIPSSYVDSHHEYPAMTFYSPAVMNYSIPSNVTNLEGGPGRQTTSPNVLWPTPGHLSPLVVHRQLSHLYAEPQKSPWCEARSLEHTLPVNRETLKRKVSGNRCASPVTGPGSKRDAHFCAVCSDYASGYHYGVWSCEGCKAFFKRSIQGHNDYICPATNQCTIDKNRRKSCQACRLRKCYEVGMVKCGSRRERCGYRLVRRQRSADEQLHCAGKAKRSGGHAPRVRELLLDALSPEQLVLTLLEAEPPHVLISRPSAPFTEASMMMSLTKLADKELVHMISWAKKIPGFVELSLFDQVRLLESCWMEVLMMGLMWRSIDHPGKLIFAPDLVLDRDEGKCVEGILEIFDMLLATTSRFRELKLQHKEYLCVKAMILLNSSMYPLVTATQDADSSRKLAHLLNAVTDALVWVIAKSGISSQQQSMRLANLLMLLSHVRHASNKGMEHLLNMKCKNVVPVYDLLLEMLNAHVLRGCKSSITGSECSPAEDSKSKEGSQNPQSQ
assay metric: pKi
Numbers only, as −log10 of the molar value.

Quick one: pKi of Oc1ccc(-c2cc3ccc(O)cc3s2)cc1 [RALOXIFENE CORE] ?
8.64

* * *

species: Canis lupus familiaris; assay: […] hound bone beams assessed as energy to fracture at 2 uM by 4 point bending analysis relative to control
Please provide measured Activity for the entries that follow.
Give bare numbers, in %.

Take a look at these entries with their results.
compound	Activity [%]
O=C(c1ccc(OCCN2CCCCC2)cc1)c1c(-c2ccc(O)cc2)sc2cc(O)ccc12	16
Oc1ccc(-c2cc3ccc(O)cc3s2)cc1 [RALOXIFENE CORE]	-75
O=C(c1ccc(O)cc1)c1c(-c2ccc(O)cc2)sc2cc(O)ccc12	-36

Quick one: Activity of COc1ccc2c(C(=O)c3ccc(OCCN4CCCCC4)cc3)c(-c3ccc(O)cc3)sc2c1 ?
25

* * *

Please provide measured Activity for the entries that follow.
test: Binding affinity to synthetic ceramic hydroxyapatite type 1 assessed as reduction in bound compound level at 50 uM after 16 hrs by NMR spectroscopic analysis relative to alendronate; set-up: scale not given: the % may be the effect or the level left
Answers are plain numbers, in %.

Take a look at these entries with their results.
compound	Activity (%)
Oc1ccc(-c2cc3ccc(O)cc3s2)cc1 [RALOXIFENE CORE]	11.7
C[C@]12CC[C@@H]3c4ccc(O)cc4CC[C@H]3[C@@H]1CC[C@@H]2O	73.2
O=C(c1ccc(OCCN2CCCCC2)cc1)c1c(-c2ccccc2)sc2ccccc12	-238
O=C(c1ccc(O)cc1)c1c(-c2ccc(O)cc2)sc2cc(O)ccc12	15.1
COc1ccc(Nc2nc(NCc3ccco3)nc(N/N=C(\C)c3ccc(NC(C)=O)cc3)n2)cc1	4.1
O=C(c1ccc(OCCN2CCCCC2)cc1)c1c(-c2ccc(O)cc2)sc2cc(O)ccc12	-207

--- query ---
Quick one: Activity of COc1ccc2c(C(=O)c3ccc(OCCN4CCCCC4)cc3)c(-c3ccc(O)cc3)sc2c1 ?
-287

* * *

experiment: Binding affinity to synthetic ceramic hydroxyapatite type 1 assessed as reduction in bound compound level at 50 uM after 16 hrs by NMR spectroscopic analysis relative to control; design: scale not given: the % may be the effect or the level left
Please provide measured Activity for the entries that follow.
Answers are plain numbers, in %.

compound	observed value
COc1ccc2c(C(=O)c3ccc(OCCN4CCCCC4)cc3)c(-c3ccc(O)cc3)sc2c1	-286
Oc1ccc(-c2cc3ccc(O)cc3s2)cc1 [RALOXIFENE CORE]	11.7
C[C@]12CC[C@@H]3c4ccc(O)cc4CC[C@H]3[C@@H]1CC[C@@H]2O	73

# batch: return Activity for each of the 3 compounds below
1. O=C(c1ccc(OCCN2CCCCC2)cc1)c1c(-c2ccccc2)sc2ccccc12
2. NCCCC(O)(P(=O)(O)O)P(=O)(O)O
3. O=C(c1ccc(OCCN2CCCCC2)cc1)c1c(-c2ccc(O)cc2)sc2cc(O)ccc12

1. -237
2. 99.7
3. -206

# batch: return Activity for each of the 2 compounds below
1. O=C(c1ccc(O)cc1)c1c(-c2ccc(O)cc2)sc2cc(O)ccc12
2. COc1ccc(Nc2nc(NCc3ccco3)nc(N/N=C(\C)c3ccc(NC(C)=O)cc3)n2)cc1

15.1
4.1

// data source = ChEMBL document CHEMBL3751680
